Recorded IC50, one value per entry.
molecular target: Hypoxia-inducible factor 1-alpha (Homo sapiens, UniProt Q16665); test: Inhibition of HIF-1alpha (unknown origin) transcriptional activity expressed in human MCF7 cells after 24 hrs under hypoxic condition by HRE luciferase reporter gene assay; format: cell-based
Sequence (Q16665 whole entry): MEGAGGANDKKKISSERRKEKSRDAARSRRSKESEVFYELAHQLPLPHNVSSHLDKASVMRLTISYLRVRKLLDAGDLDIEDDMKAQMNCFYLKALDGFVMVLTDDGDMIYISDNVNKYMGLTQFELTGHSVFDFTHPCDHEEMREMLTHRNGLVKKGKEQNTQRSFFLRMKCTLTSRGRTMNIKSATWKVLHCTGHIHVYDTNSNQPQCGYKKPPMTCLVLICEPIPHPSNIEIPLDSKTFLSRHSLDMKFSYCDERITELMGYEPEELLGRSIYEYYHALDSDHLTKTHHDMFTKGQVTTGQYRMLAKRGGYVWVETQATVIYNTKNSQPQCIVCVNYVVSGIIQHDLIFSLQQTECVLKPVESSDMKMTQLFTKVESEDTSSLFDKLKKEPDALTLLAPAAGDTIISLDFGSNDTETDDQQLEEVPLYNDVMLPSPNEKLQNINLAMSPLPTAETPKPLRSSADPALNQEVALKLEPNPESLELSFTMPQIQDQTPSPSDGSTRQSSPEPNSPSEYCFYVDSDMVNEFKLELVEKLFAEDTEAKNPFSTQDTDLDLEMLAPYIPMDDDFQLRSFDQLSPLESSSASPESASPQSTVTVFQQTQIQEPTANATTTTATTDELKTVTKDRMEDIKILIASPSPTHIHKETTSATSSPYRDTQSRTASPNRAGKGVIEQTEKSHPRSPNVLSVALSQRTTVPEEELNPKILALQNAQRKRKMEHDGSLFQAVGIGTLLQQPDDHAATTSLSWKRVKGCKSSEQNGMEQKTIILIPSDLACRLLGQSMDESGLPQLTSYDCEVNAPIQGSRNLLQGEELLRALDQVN
Numeric only. Scale: µM

The cases that follow already have their IC50 on record.
Fill in: IC50 of `CCOC(=O)c1oc2ccc(NS(=O)(=O)c3cccc(C(F)(F)F)c3)cc2c1C` is ___
36.3

Fill in: IC50 of `CCOC(=O)c1oc2ccc(NS(=O)(=O)c3cccc([N+](=O)[O-])c3)cc2c1C` is ___
29.4

Fill in: IC50 of `CCOC(=O)c1oc2ccc(NS(=O)(=O)c3cccs3)cc2c1C` is ___
45.4

Fill in: IC50 of `CCOC(=O)c1oc2ccc(NS(=O)(=O)c3ccc(Br)cc3)cc2c1C` is ___
29.9

Fill in: IC50 of `CCOC(=O)c1oc2ccc(NS(=O)(=O)c3ccc(C(C)(C)C)cc3)cc2c1C` is ___
27.1

Fill in: IC50 of `CCOC(=O)c1oc2ccc(NS(=O)(=O)c3ccc(C)cc3)cc2c1C` is ___
45.4

Fill in: IC50 of `CCOC(=O)c1oc2ccc(NS(=O)(=O)c3ccc([N+](=O)[O-])cc3)cc2c1C` is ___
36.2

Fill in: IC50 of `CCOC(=O)c1oc2ccc(NS(=O)(=O)c3ccc(OC)c(OC)c3)cc2c1C` is ___
12.5

New cases:
Fill in: IC50 of `CCOC(=O)c1oc2ccc(NS(=O)(=O)c3cccc(C)c3)cc2c1C` is ___
32.7

Fill in: IC50 of `CCOC(=O)c1oc2ccc(NS(=O)(=O)c3ccc(Cl)cc3)cc2c1C` is ___
50

Fill in: IC50 of `CCOC(=O)c1oc2ccc(NS(=O)(=O)c3cccnc3)cc2c1C` is ___
34.1

Fill in: IC50 of `CCOC(=O)c1oc2ccc(NS(=O)(=O)c3ccccc3Cl)cc2c1C` is ___
20.8

Fill in: IC50 of `CCOC(=O)c1oc2ccc(NS(=O)(=O)c3cccc(Br)c3)cc2c1C` is ___
25.6

---

system: MDA-MB-468; assay: Antiproliferative activity against human MDA-MB-468 cells after 72 hrs under hypoxic condition by MTT assay; type: functional, cell-based; conditions: MDA-MB-468, 72 h
readoutType: IC50 (µM)
Numeric only. Scale: µM

The cases that follow already have their IC50 on record.
Fill in: IC50 of `CCOC(=O)c1oc2ccc(NS(=O)(=O)c3cccc(C)c3)cc2c1C` is ___
25.3

Fill in: IC50 of `CCOC(=O)c1oc2ccc(NS(=O)(=O)c3ccc(OC)c(OC)c3)cc2c1C` is ___
20.5

Fill in: IC50 of `CCOC(=O)c1oc2ccc(NS(=O)(=O)c3ccc(C(F)(F)F)cc3)cc2c1C` is ___
27.2

Then this compound:
Fill in: IC50 of `CCOC(=O)c1oc2ccc(NS(=O)(=O)c3cccc(Br)c3)cc2c1C` is ___
30.7
